This section presents compounds with their documented normalised viability values.
System: MDA-MB-453
procedure.details: normalised viability (% of control), CellTiter-Blue; higher = more viable cells (about 100 = DMSO control)
experimental.setup: 3000 nM; incubation time: 72 h
Provide the reading as a plain figure in %.

- Oc1ncc(N(CCCl)CCCl)c(O)n1: 92.8
- Nc1ccccc1NC(=O)c1ccc(CNC(=O)OCc2cccnc2)cc1: 50.3
- Cc1ccc(-c2cc(C(F)(F)F)nn2-c2ccc(S(N)(=O)=O)cc2)cc1: 91.7
- C1CN1c1nc(N2CC2)nc(N2CC2)n1: 113

# next compound below
Determine from records and report normalised viability for `C=CC(=O)Nc1cc2c(Nc3ccc(F)c(Cl)c3)ncnc2cc1OCCCN1CCOCC1`
28.2
